tested on: Heat shock protein HSP 90 (rabbit reticulocyte lysate; luciferase refolding); test: HSP90 inhibitors, primary screen, cell lysate, luminescence (AID 1789); details: 3 h, at 5.6 µM, hits give high values;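 note: 0% = DMSO wells and 100% = 60 µM geldanamycin wells; inhibitors lower the luminescence because luciferase stays unfolded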
The whole screen tested about 290,000 compounds, of which about 2,700 (0.93%) were called active. This is one part of a sample in which actives are shown more often than they occur.
Give measured inhibition for each item. Keep answers brief.
Expressed in %, but write only the number.

Please report the recorded inhibition for Cc1nc2cc(NC(=O)NC3CC3)ccc2n1C .
-3.15

Please report the recorded inhibition for CC(=O)N1CCC(C(=O)OCc2ccc(Cl)cc2)(c2ccccc2)CC1 .
-1.35

Please report the recorded inhibition for CCc1nc(N2CCN(C(C)=O)CC2)c2c3c(sc2n1)CCCC3 .
0.58

Please report the recorded inhibition for C#CCOc1ccc(/C=C2/C(=O)ON=C2C)cc1OCC .
1.13

Please report the recorded inhibition for Nc1ccc(-c2sc(N)nc2-c2ccccc2)cc1 .
-4.32

Please report the recorded inhibition for CN1CCN(CCNC(=O)Nc2ccccc2[N+](=O)[O-])CC1 .
-4.79

Please report the recorded inhibition for O=C(O)CSc1c2c(nc3cc(C(=O)Nc4cccc(C(F)(F)F)c4)ccc13)CCCC2 .
-0.05

Please report the recorded inhibition for CCCc1cc(=O)oc2c(C)c(OC(C)C(=O)NCC(O)c3ccccc3)ccc12 (stereo unspecified) .
-5.71

Please report the recorded inhibition for Brc1ccc(-c2nnc(-c3ccccc3)o2)o1 .
-0.79

Please report the recorded inhibition for CC(C)CNC(=O)CC(c1ccccc1)c1c(O)ccc2ccccc12 (stereo unspecified) .
-0.94

Please report the recorded inhibition for Nc1ccc(-c2nnc(-c3ccccc3)o2)cc1 .
20.3

----------
tested on: Heat shock protein HSP 90 (rabbit reticulocyte lysate; luciferase refolding); assay: HSP90 inhibitors, primary screen, cell lysate, luminescence (AID 1789); conditions: 3 h, at 5.6 µM;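 note: 0% = DMSO wells and 100% = 60 µM geldanamycin wells; inhibitors lower the luminescence because luciferase stays unfolded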
The campaign covered roughly 290,000 compounds. About 2,700 (0.93%) were called active.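 The calls were made as follows: active = inhibition above the screen-wide mean plus 3 SD, computed separately per campaign (cut at about 16% in these data); inactive = the rest.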 This excerpt belongs to a sample that is enriched for actives.
Give one outcome, nothing more. List: active, inactive

Name the outcome recorded for CC(C)(C)OC(=O)c1c(N)n(CCCN2CCCC2=O)c2nc3ccccc3nc12 in the assay.
active

Name the outcome recorded for COc1ccc(Nc2ncnc3ccc(Br)cc23)c(OC)c1 in the assay.
active

Name the outcome recorded for O=S(=O)(Cc1cc(Cl)nc(-c2cccnc2)n1)c1ccccc1 in the assay.
inactive

Name the outcome recorded for O=C(CN1C(=O)c2ccccc2S1(=O)=O)N1CCc2ccccc21 in the assay.
active

Name the outcome recorded for Fc1ccccc1/C=C1\CCCC2=C1Nc1ncnn1C2c1ccccc1F (centres undefined) in the assay.
inactive

Name the outcome recorded for CC(=O)NS(=O)(=O)c1ccc(N/C(N)=N/c2nc(C)cc(C)n2)cc1 in the assay.
inactive

Name the outcome recorded for Cc1ccc2[nH]c3c(=O)n(CC(=O)NCCc4ccc(Cl)cc4)ncc3c2c1 in the assay.
inactive

Name the outcome recorded for COc1ccc(C2=NN(c3nc4ccccc4s3)C(=O)C2)cc1 in the assay.
inactive

Name the outcome recorded for CCOc1ccccc1C(=O)NCCCn1ccnc1 in the assay.
inactive

Name the outcome recorded for Cc1sc2nc(COC(=O)C(NC(=O)c3ccc(Cl)cc3Cl)C(C)C)[nH]c(=O)c2c1C (centres undefined) in the assay.
inactive

Name the outcome recorded for CCOc1ccc(OCC(=O)Nc2c3c(nn2C(C)(C)C)CS(=O)(=O)C3)cc1 in the assay.
inactive

Name the outcome recorded for COc1ccc(-n2nnnc2-c2nc3ccccc3s2)cc1 in the assay.
active

Name the outcome recorded for Cc1cccc(CCNC(=O)Cn2ncc3c([nH]c4ccc(C)cc43)c2=O)c1 in the assay.
active

Name the outcome recorded for CC(=O)N1CCN(CC(C)(C)NS(=O)(=O)c2ccc(C)cc2)CC1 in the assay.
inactive

Name the outcome recorded for O=C(CN1C(=O)c2ccccc2S1(=O)=O)NC1CCCCC1 in the assay.
inactive

Name the outcome recorded for c1ccc(-c2noc(-c3cccs3)n2)nc1 in the assay.
active

Name the outcome recorded for COc1ccc(C(C(=O)NC2CCCC2)N(CCCO)C(=O)Cn2nnc(-c3ccc(C)o3)n2)cc1 (centres undefined) in the assay.
inactive

Name the outcome recorded for CCN(CC)CCN1C(=O)C(=O)/C(=C(/O)c2cnn(-c3ccccc3)c2C)C1c1cccs1 (centres undefined) in the assay.
active

Name the outcome recorded for CC1CC(C)CN(CCCNC(=O)Cn2ncc3c([nH]c4ccccc43)c2=O)C1 (centres undefined) in the assay.
inactive

Name the outcome recorded for O=C(CN1CCN(c2ccccn2)CC1)N1CCc2ccccc21 in the assay.
inactive

Name the outcome recorded for COc1ccc(CNC(=O)CCn2cccc2)cc1 in the assay.
inactive

Name the outcome recorded for COC(=O)C1(C)CC1(c1ccccc1)c1ccccc1 (centres undefined) in the assay.
inactive

Name the outcome recorded for O=C(Cn1nc(C(=O)O)c2ccccc2c1=O)Nc1ccc(F)cc1 in the assay.
inactive

Name the outcome recorded for COc1nc(-c2ccc(Cl)cc2)ccc1-c1noc(-c2cccs2)n1 in the assay.
inactive

Name the outcome recorded for Cn1c(=O)c2c(SCC(=O)NCC3CCCO3)nc(CC(C)(C)C)nc2n(C)c1=O (centres undefined) in the assay.
inactive

Name the outcome recorded for COc1ccc(NC(=O)/C(C#N)=C\c2cc(OC)c(OCc3ccc(C(=O)O)cc3)cc2Br)cc1 in the assay.
inactive

Name the outcome recorded for COc1ccc(CNC(=O)/C(C#N)=C/c2cccc(OC)c2OC)cc1 in the assay.
active

Name the outcome recorded for O=C(COc1ccc2ccc(=O)oc2c1)NCC(O)c1ccccc1 (centres undefined) in the assay.
inactive

Name the outcome recorded for COCC(C)OC(=O)c1c(N)n(CCCN2CCOCC2)c2nc3ccccc3nc12 (centres undefined) in the assay.
inactive

Name the outcome recorded for CCC1Oc2ccccc2N(CC(=O)NCCCN2CCN(CC)CC2)C1=O (centres undefined) in the assay.
inactive

Name the outcome recorded for Cc1ccc(-c2csc(NNC(=O)c3ccccc3)n2)cc1 in the assay.
inactive

Name the outcome recorded for Cc1nc(NC(=O)c2cccc(Cl)c2)sc1-c1csc(Nc2cccc(Cl)c2)n1 in the assay.
active

Name the outcome recorded for O=C(CCN1C(=O)C2C3CCC(C3)C2C1=O)Nc1ccc(Cl)cc1Cl (centres undefined) in the assay.
inactive

Name the outcome recorded for COc1ccccc1NC(=O)CN(c1ccccc1OC)S(=O)(=O)c1ccccc1 in the assay.
inactive

Name the outcome recorded for CN(C)c1ccc(-n2cccc2/C=C2/SC(=Nc3ccc(F)cc3)NC2=O)cc1 in the assay.
inactive

Name the outcome recorded for CCCCOCCCNC(=O)c1ccccc1OCC in the assay.
active

Name the outcome recorded for Cc1ccc(S(=O)(=O)N(CCCN(C)C)Cc2ccc3c(c2)OCO3)cc1 in the assay.
inactive

Name the outcome recorded for Cc1ccc(NC(=O)C(=O)NCc2ccco2)c(C)c1 in the assay.
inactive

Name the outcome recorded for COc1ccc(S(=O)(=O)NC(C)c2ccccc2)cc1C(=O)N1CCCCC1 (centres undefined) in the assay.
inactive

Name the outcome recorded for O=C(NCCCN1CCCC1=O)C(=O)NCC1OCCN1S(=O)(=O)c1ccc(Br)cc1 (centres undefined) in the assay.
inactive

Name the outcome recorded for Cc1cc(C)n2nc(SCC(=O)NC(=O)NCc3ccco3)nc2n1 in the assay.
inactive

Name the outcome recorded for CCN(CC)CCN1C(=O)C(=O)/C(=C(/O)c2ccccc2)C1c1ccccc1F (centres undefined) in the assay.
inactive

Name the outcome recorded for CCCCCCC(=O)Nc1nc(C)c(-c2csc(Nc3cc(Cl)ccc3OC)n2)s1 in the assay.
inactive

Name the outcome recorded for Cc1ccnc(N2C(=O)c3ccccc3C2Nc2ccc3c(c2)OCCO3)c1 (centres undefined) in the assay.
inactive

----------
system: Heat shock protein HSP 90 (rabbit reticulocyte lysate; luciferase refolding); experiment: HSP90 inhibitors, primary screen, cell lysate, luminescence (AID 1789); settings: 3 h, at 5.6 µM;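 note: 0% = DMSO wells and 100% = 60 µM geldanamycin wells; inhibitors lower the luminescence because luciferase stays unfolded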
The campaign covered roughly 290,000 compounds. About 2,700 (0.93%) were called active.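 How the source made its calls: active means inhibition above the screen-wide mean plus 3 SD, computed separately per campaign (cut at about 16% in these data); inactive means the rest.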 The sample holds actives, similar compounds and a random draw of the others, so the mix is not that of the screen.
Give one outcome, nothing more. List: 1 = active, -1 = inactive

Name the outcome recorded for O=[N+]([O-])c1ccc(N=Cc2c(O)ccc3ccccc23)cc1 in the assay.
-1

Name the outcome recorded for O=C(OC1CCOC1=O)c1ccc(-c2nc3ccccc3s2)s1 (stereo unspecified) in the assay.
1

Name the outcome recorded for Cc1nn(Cc2ccccc2)c(Cl)c1C(=O)OC1CCOC1=O (stereo unspecified) in the assay.
-1

Name the outcome recorded for COc1ccc(NC(=O)NN2CCN(C)CC2)c(OC)c1 in the assay.
-1

Name the outcome recorded for CC(C)Cn1cnc2c1c(=O)n(CC(=O)NN)c(=O)n2Cc1ccccc1 in the assay.
-1

Name the outcome recorded for O=[N+]([O-])c1ccc(F)cc1Oc1nc(-c2cccnc2)nc2ccccc12 in the assay.
-1

Name the outcome recorded for Cc1ccc(-n2c(C)cc(C(=O)CN3C(=O)C(=O)N(C4CCCC4)C3=O)c2C)cc1 in the assay.
-1

Name the outcome recorded for Cc1cccc(-c2c(NC(=O)c3ccco3)oc3ccc(Cl)cc3c2=O)c1 in the assay.
-1

Name the outcome recorded for Cc1cc(N=Nc2ccc3ccccc3c2)ccc1O in the assay.
-1

Name the outcome recorded for Cc1cccc(NC(=O)c2cccc(C(=O)Nc3cccc(C)c3C)n2)c1C in the assay.
-1

Name the outcome recorded for O=C(Nc1cccnc1)c1noc2c1CCCCC2 in the assay.
1
